# reported EC50; entries follow
Study target: human muscarinic M4 receptor (Homo sapiens, UniProt P08173)
Construct: expressed in transfected cells
Sequence (P08173 whole entry): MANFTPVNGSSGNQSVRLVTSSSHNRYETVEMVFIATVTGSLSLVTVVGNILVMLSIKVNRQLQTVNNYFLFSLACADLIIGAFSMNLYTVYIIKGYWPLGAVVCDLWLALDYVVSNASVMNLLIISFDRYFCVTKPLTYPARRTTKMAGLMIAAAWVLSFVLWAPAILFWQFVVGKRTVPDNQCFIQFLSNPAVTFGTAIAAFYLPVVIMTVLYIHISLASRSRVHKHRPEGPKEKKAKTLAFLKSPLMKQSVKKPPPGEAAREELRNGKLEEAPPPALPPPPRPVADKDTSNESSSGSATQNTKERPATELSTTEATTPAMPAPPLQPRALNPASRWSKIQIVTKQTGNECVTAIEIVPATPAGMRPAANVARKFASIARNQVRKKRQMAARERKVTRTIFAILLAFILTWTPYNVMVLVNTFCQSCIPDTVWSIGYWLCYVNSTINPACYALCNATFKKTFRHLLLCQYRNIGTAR
Experiment notes: Alphascreen Surefire phospho-ERK1/2 functional assay, M4
Assay type: cell-based
Setup conditions: CHO cells stably expressing human M4; phospho-ERK1/2; read-out: pEC50 M4 (converted)
I only need the number, in nM, no unit after it.

Observe how each entry below is paired with its result.
# Compound, Measure unit, Number
measured = [
    ("CCOC(=O)N1CCC2(CC(N3CCC4(CC3)CC(=O)N(CC)N4CC)C2)C1 (single isomer, unassigned) [6-8 Isomer 2]", "nM", 63.1),
    ("CCOC(=O)N1CC2(CC(N3CCC4(CC3)OC(=O)NC4CC)C2)C1 (single isomer, unassigned) [2-1 Isomer 2]", "nM", 126),
    ("CCOC(=O)N1CCC2(CC(N3CCC4(CC3)OC(=O)N(CC(C)C)C4(C)C)C2)C1 (single isomer, unassigned) [4-38 Isomer 1]", "nM", 63.1),
    ("CCOC(=O)N1CCC2(CC(N3CCC4(CC3)OC(=O)N3CCCC34)C2)C1 (single isomer, unassigned) [4-44 Isomer 4]", "nM", 79.4),
    ("CCOC(=O)N1CCC2(CC(N3CCC4(CC3)OC(=O)NC4C)C2)C1 (single isomer, unassigned) [4-11 Isomer 2]", "nM", 79.4),
]

Turning to the following compound.
Record CCCN1C(=O)OC2(CCN(C3CC4(CCN(C(=O)OCC)C4)C3)CC2)C1(C)C (single isomer, unassigned) [4-37 Isomer 1] / human muscarinic M4 receptor (Homo sapiens, UniProt P08173), EC50 recorded as 5.01
